All values here come from ChEMBL document CHEMBL1201862.

GI50 listing for selected molecules.
Test system: XF498
procedure details: NCI tumour cell line growth inhibition, 48 h
Calls of active or inactive are those of the source. Cut-off read from the data, not from the text of the source: active = GI50 up to about 1.1 µM and inactive = higher.

Recorded GI50, per entry:
CNC(=S)NC1CCCCC1NC(=S)NC (stereo unspecified) | > 100 µM (inactive)
CCOC(=O)C1CCCCN1C(=O)OCc1ccccc1 (stereo unspecified) | 14.2 µM (inactive)
CN(C)C(=O)NC(=S)N(C)C | > 100 µM (inactive)
CC(C)c1ccc(C2NC(S)=NC3=C2c2ccccc2C3=O)cc1 (stereo unspecified) | 32.4 µM (inactive)
CC(CC(=O)N1C(=O)C(C)(C)[C@@H](O)[C@H]1CC(C)C(Cl)(Cl)Cl)C(Cl)(Cl)Cl (stereo partly specified) | > 100 µM (inactive)

[ask] # GI50 lookup, item CC(=O)O[C@H]1CCC2[C@@H]3CCC4C(=O)c5oncc5C[C@]4(C)C3CC[C@@]21C (stereo partly specified)
[reply] > 100 µM (inactive)

[ask] Proceed to C/C(=C\CC/C=C(\C)CC/C=C(\C)CCC1SC1(C)C)CC/C=C(\C)CCC1OC1(C)C (stereo unspecified)
[reply] > 100 µM (inactive)

[ask] Lookup COc1ccccc1N1C(Cl)C(=O)C1c1c[nH]c2ccccc12 (stereo unspecified)
[reply] > 100 µM (inactive)

[ask] Let us now turn to `CN(C)c1ccc(N=O)c(O)c1.CN(C)c1ccc(N=O)c(O)c1.[SiH4]`
[reply] 9.4 µM (inactive)

[ask] Request: `CS/C(=N/C(=O)c1ccccc1)SCCS/C(=N\C(=O)c1ccccc1)SC`
[reply] > 100 µM (inactive)

[ask] Check CCc1cccc(C)c1N1C(=O)C(=O)C(c2nc3ccccc3o2)/C(=N/NC(=S)NN)C1=O (stereo unspecified) too.
[reply] > 100 µM (inactive)

* * *

Parameter: GI50. Scope: all listed entries.
System: MOLT-4
procedure details: NCI tumour cell line growth inhibition, 48 h
Activity calls are given as the source filed them. Rule as the data show it: active = GI50 up to about 1.1 µM and inactive = higher.

[ask] Entry COC(=O)C1=C(N)C2=C(N)Oc3ccccc3C2CC1=C(C#N)C#N (configuration not stated) : reported GI50 = ?
[reply] 33.4 µM (inactive)

[ask] Follow-up item: `COc1ccc(/C(=N/OCCCC(=O)O)c2cccs2)cc1`
[reply] > 100 µM (inactive)

* * *

Test system: LXFL 529
procedure details: NCI tumour cell line growth inhibition, 48 h
The source made the active and inactive calls. No stated cut-off is given here; in the data, active = GI50 up to about 1.1 µM and inactive = higher.
parameter measured: GI50

Worked set:
O=C1CCCCC1CN1CCCC1 (centres undefined) | > 100 µM (inactive)
CC(C)(C)NC(=O)NC12CC3CC(CC(F)(C3)C1)C2 | > 100 µM (inactive)
Cc1cn(C2CC(OC3CCCCO3)C(CO)O2)c(=O)[nH]c1=O (centres undefined) | > 100 µM (inactive)

[ask] Consider the molecule COc1cc2c(cc1OC)C(C#N)(Cc1ccccc1)N(C(=O)c1ccccc1)C=C2 (centres undefined) and give its measured GI50.
[reply] 39.4 µM (inactive)

* * *

Test system: UACC-62
procedure details: NCI tumour cell line growth inhibition, 48 h
Active and inactive are the calls of the source. Rule as the data show it: active = GI50 up to about 1.1 µM and inactive = higher. Positions of bridges follow the written chain, without caps; N, C: chain ends. Non-standard residues stand in square brackets, D forms with d. Residues, ends and D or L forms follow the SMILES beside them. *: point of attachment. Cbz = O=C(OCc1ccccc1)*; Aib = CC(C)(N)C(=O)O; OBn = c1ccc(CO*)cc1; βAla = NCCC(=O)O
parameter measured: GI50

Check out these entries, answers already filled in.
COc1ccc(C(c2cc3c(cc2O)OCO3)N2CCOCC2)cc1OC (centres undefined) | 5.75 µM (inactive)
COC(=O)[C@@H]1CCCN1CCN1CCC[C@H]1C(=O)OC | > 100 µM (inactive)
CC1(C)NC(=O)C(NC(=O)C(CC(=O)OCc2ccccc2)NC(=O)OCc2ccccc2)CCCCNC(=O)CCNC1=O (centres undefined) (Cbz-D(OBn)K[Aib][βAla]; lactam 2-C; configuration not given here) | > 100 µM (inactive)
O=C(N/C(=C\c1cccc([N+](=O)[O-])c1)c1nc2ccccc2[nH]1)c1ccccc1 | 88.1 µM (inactive)
O=C(Nc1ccc(F)cc1)c1cc2ccc(O)cc2o/c1=N\c1ccccc1F | 22.6 µM (inactive)
N#CC1=C(N)Nc2nc3ccccc3n2C1c1ccccc1 (centres undefined) | 56.6 µM (inactive)
COc1cc(Nc2nnc3n2S(=O)(=O)c2cc(C)c(Cl)cc2S3)cc(OC)c1 | 18.1 µM (inactive)
O=C1N[C@@H]([C@H](CCCCCO)OC(=O)c2ccccc2)CO1 | > 100 µM (inactive)

[ask] Bench note: what GI50 did CC(NC(=O)c1c(O)[nH]c(=S)[nH]c1=O)c1ccc([N+](=O)[O-])cc1 (centres undefined) show?
[reply] 77.3 µM (inactive)

[ask] Also COc1cc(C2c3cc4c(cc3OC(Nc3ccc(C(=O)O)cc3)C2C)OCO4)cc(OC)c1OC (centres undefined) ?
[reply] 0.403 µM (active)

[ask] What do we get for CC(C)c1ccc(C2NC(S)=NC3=C2c2ccccc2C3=O)cc1 (centres undefined) ?
[reply] 12 µM (inactive)

[ask] Next up: NC(=O)c1ncn(C2OC(CO)C(O)C2O)c1NC=O (centres undefined)
[reply] > 100 µM (inactive)

[ask] What do we get for `O=c1[nH]c(=O)c2ncn(-c3ccc([N+](=O)[O-])cn3)c2[nH]1` ?
[reply] 74.1 µM (inactive)

[ask] Entry to check: `CN(C)/N=C/c1cn(C)c(=O)n(C)c1=O`
[reply] > 100 µM (inactive)

[ask] Same question for `CCCCCCCCCCCC(=O)OCCOCCOCCOCCOCCOCc1ccc(OC)cc1` please.
[reply] > 100 µM (inactive)

[ask] // query: CC1SCc2nc3ccccc3n21 (centres undefined)
[reply] > 100 µM (inactive)

[ask] Next: CC(C)(C)c1ccc(O)c(C(O)c2ccccn2)c1 (centres undefined)
[reply] 2.24 µM (inactive)

* * *

Tested on: NCI-H226
procedure details: NCI tumour cell line growth inhibition, 48 h
Calls of active or inactive are those of the source. No stated cut-off is given here; in the data, active = GI50 up to about 1.1 µM and inactive = higher.
The categories you may choose from are active, inactive

COc1cc(C2c3cc4c(cc3OC(Nc3ccc(C(=O)O)cc3)C2C)OCO4)cc(OC)c1OC (centres undefined) | inactive

[ask] State the result this test recorded for CCOC(=O)C(Cc1ccc(N(CCCl)CCCl)cc1)NC(=O)C(Cc1ccccc1)NC(C)=O (centres undefined) .
[reply] active

[ask] // same read-out, input: `Cn1c(=O)c2sc3c4sc5c(=O)n(C)c6ccccc6c5c4sc3c2c2ccccc21`
[reply] inactive

[ask] // repeat for Cc1nn(C(=O)Cc2ccccc2)c2c1C(c1ccc(N(C)C)cc1)SC(=N)N2 (centres undefined) and report
[reply] inactive

[ask] Check `C[C@@]1(OC(=O)c2cc([N+](=O)[O-])cc([N+](=O)[O-])c2)C[C@@H]2CCCC[C@@H]21` too.
[reply] inactive

[ask] Follow-up entry: CCOc1ccc(C2=NN(CC)C(=O)C(C3C(=O)N(c4ccccc4)N=C3C)C2)cc1 (centres undefined)
[reply] inactive

[ask] Next compound up: `O=C(/C=C/CC(O)(c1ccccc1)c1ccccc1)Nc1ccccc1Cl`
[reply] inactive

[ask] Subsequent entry: `NNC(=O)COc1nc(-c2cccs2)nc2ccc(I)cc12`
[reply] inactive

[ask] Please give the result for O=C1CC2(CCC(O)(c3ccco3)C(C(=O)c3ccco3)C2)C(=O)c2ccccc2N1 (centres undefined) too.
[reply] inactive

* * *

Tested on: NCI/ADR-RES
procedure details: NCI tumour cell line growth inhibition, 48 h
The source made the active and inactive calls. No stated cut-off is given here; in the data, active = GI50 up to about 1.1 µM and inactive = higher.
Parameter call: string, one of true (1) for active, false (0) for inactive

Record excerpt, results attached:
Fc1cccc(F)c1C1SCc2nc3ccc(Cl)cc3n21 (centres undefined) | false (0)
CCOC(=O)c1cn2c(n1)sc1cccc(C)c12 | false (0)
Cn1c(=O)ccc2c(=O)c3ccccc3oc21 | false (0)
N#Cc1c(-c2ccc(Cl)cc2)c2c(n(C3OC(CO)C(O)C(O)C3O)c1=S)CCCC2 (centres undefined) | false (0)
Cc1c2oc3c(C)cc(F)c(C(=O)NC4C(=O)NC(C(C)C)C(=O)N5CCCC5C(=O)N(C)CC(=O)N(C)C(C(C)C)C(=O)OC4C)c3nc-2c(C(=O)NC2C(=O)NC(C(C)C)C(=O)N3CCCC3C(=O)N(C)CC(=O)N(C)C(C(C)C)C(=O)OC2C)c(N)c1=O (centres undefined) | false (0)

[ask] Assay outcome for O=C(CNC(c1ccccc1)(c1ccccc1)c1ccccc1)NC1CCCCC1NC(=O)CNC(c1ccccc1)(c1ccccc1)c1ccccc1 (centres undefined) : what was it?
[reply] false (0)

[ask] Ok, now `CC(C)(C)c1cc2c(O)c(c1)COCc1cc(C(C)(C)C)cc(c1O)COCc1cc(C(C)(C)C)cc(c1O)COC2`
[reply] false (0)

[ask] Moving on to the next compound: CC(=O)C1C(=O)C(=O)N(c2ccc(Br)cc2)C1=O (centres undefined)
[reply] false (0)
